Data provenance: ChEMBL document CHEMBL4229456

Measured pEC50 values are reported for all entries that follow.
target: 2-Hydroxyacid oxidase 1 (Mus musculus); assay: Inhibition of glycolate oxidase in C57BL/6 Agxt1-/- mouse hepatocytes using glycolate as substrate assessed as reduction in oxalate production after 48 hrs; format: cell-based
Sequence (Q9WU19 whole entry): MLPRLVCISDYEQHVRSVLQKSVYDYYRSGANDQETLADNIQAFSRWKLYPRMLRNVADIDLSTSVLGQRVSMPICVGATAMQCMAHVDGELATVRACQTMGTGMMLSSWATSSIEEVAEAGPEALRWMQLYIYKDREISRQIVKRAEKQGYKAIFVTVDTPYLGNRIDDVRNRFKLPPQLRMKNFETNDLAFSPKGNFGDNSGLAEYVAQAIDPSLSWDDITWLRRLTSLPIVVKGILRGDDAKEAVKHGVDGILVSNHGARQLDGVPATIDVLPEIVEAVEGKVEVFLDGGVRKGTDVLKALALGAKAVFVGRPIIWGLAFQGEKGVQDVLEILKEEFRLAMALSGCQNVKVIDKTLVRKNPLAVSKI
The read-out pEC50 is expressed as -log10 of concentration in moles per litre.

>>> experimental_result("O=Cc1ccc(-c2ccc(O)c(C(=O)O)c2)o1")
5.08

Here is the next item to consider.
For reference, reported pEC50 for O=C(O)c1cc(-c2ccco2)ccc1O stands at 5.10

* * *

target: 2-Hydroxyacid oxidase 1 (Mus musculus) (UniProt Q9WU19); test: Inhibition of glycolate oxidase in C57BL/6 Agxt1-/- mouse hepatocytes using glycolate as substrate assessed as relative oxalate level at 10 uM after 24 hrs; format: cell-based
Field: label. Allowed values: fulfilled (fold change (FC) < 0.9) or not fulfilled (fold change (FC) >= 0.9).

## Task Determine whether this molecule shows fold change (FC) lower than 0.9 (ties excluded): O=Cc1ccc(-c2ccc(O)c(C(=O)O)c2)s1
## Result not fulfilled

## Task Determine whether this molecule shows fold change (FC) lower than 0.9 (ties excluded): O=C(O)c1cc(Oc2ccc([N+](=O)[O-])cc2)c2ccccc2c1O
## Result fulfilled

## Task Determine whether this molecule shows fold change (FC) lower than 0.9 (ties excluded): O=C(O)c1cc(-c2cccs2)ccc1O
## Result fulfilled

## Task Determine whether this molecule shows fold change (FC) lower than 0.9 (ties excluded): COc1cccc(-c2ccc(C(=O)O)c(O)c2)c1
## Result fulfilled

## Task Determine whether this molecule shows fold change (FC) lower than 0.9 (ties excluded): O=C(O)c1cc(-c2ccsc2)ccc1O
## Result not fulfilled

## Task Determine whether this molecule shows fold change (FC) lower than 0.9 (ties excluded): O=C(O)c1cc2ccccc2c(/N=N/c2c(O)cc(S(=O)(=O)O)c3ccccc23)c1O
## Result not fulfilled

## Task Determine whether this molecule shows fold change (FC) lower than 0.9 (ties excluded): O=C(O)c1cc(-c2ccc(OCc3ccccc3)cc2)ccc1O
## Result fulfilled

## Task Determine whether this molecule shows fold change (FC) lower than 0.9 (ties excluded): O=C(O)c1ccc(-c2ccccc2COc2cccc(C(F)(F)F)c2)cc1O
## Result fulfilled

## Task Determine whether this molecule shows fold change (FC) lower than 0.9 (ties excluded): O=C(O)c1cc(-c2ccco2)ccc1O
## Result fulfilled

## Task Determine whether this molecule shows fold change (FC) lower than 0.9 (ties excluded): O=Cc1ccc(-c2cccc(C(=O)O)c2)o1
## Result fulfilled

## Task Determine whether this molecule shows fold change (FC) lower than 0.9 (ties excluded): O=C(O)c1cc(-c2ccccc2COc2cccc(C(F)(F)F)c2)ccc1O
## Result fulfilled
